# MEASURED ON: Cytochrome P450 3A4 (Homo sapiens, UniProt P08684)
# ASSAY COMMENT: Drug metabolism of the compound assessed as CYP3A4 (unknown origin) coexpressing P450 reductase and cytochrome-b5-mediated 1-(2,4-dichlorophenyl)-2-(1H-1,2,4-triazol-1-yl)ethanone formation at 500 nM after 5 mins by LC/MS analysis in presence of NADPH
# Type: ADME
# CONDITION SET: 0.5 µM
REPORTED PROPERTY: Kcat

Input: Please report the recorded Kcat for CC[C@H](C)n1ncn(-c2ccc(N3CCN(c4ccc(OC[C@@H]5CO[C@](Cn6cncn6)(c6ccc(Cl)cc6Cl)O5)cc4)CC3)cc2)c1=O .
Output: 0.0214 s⁻¹

Input: What value of measured Kcat is listed for CC[C@H](C)n1ncn(-c2ccc(N3CCN(c4ccc(OC[C@H]5CO[C@@](Cn6cncn6)(c6ccc(Cl)cc6Cl)O5)cc4)CC3)cc2)c1=O ?
Output: 0.0198 s⁻¹

Input: Would you kindly share the measured Kcat for CC[C@@H](C)n1ncn(-c2ccc(N3CCN(c4ccc(OC[C@H]5CO[C@@](Cn6cncn6)(c6ccc(Cl)cc6Cl)O5)cc4)CC3)cc2)c1=O ?
Output: 0.0183 s⁻¹

Input: Sample CC[C@@H](C)n1ncn(-c2ccc(N3CCN(c4ccc(OC[C@@H]5CO[C@](Cn6cncn6)(c6ccc(Cl)cc6Cl)O5)cc4)CC3)cc2)c1=O — what was its Kcat?
Output: 0.0159 s⁻¹

====

# MEASURED ON: Cytochrome P450 3A4 (Homo sapiens, UniProt P08684)
# ASSAY COMMENT: Drug metabolism of the compound assessed as CYP3A4 (unknown origin)-mediated 1-sec-butyl-4-(4-(4-(4-(3-hydroxy-2-oxopropoxy)phenyl)piperazin-1-yl)phenyl)-1H-1,2,4-triazol-5(4H)-one by LC/MS/MS analysis
# Assay type: ADME
REPORTED PROPERTY: Drug metabolism

In [3]: df
Out[3]:
                            chemical_smiles             observed
0  CC[C@H](C)n1ncn(-c2ccc(N3CCN(c4ccc(OC[C@H]5CO[C@](Cn6cncn6)(c6ccc(Cl)cc6Cl)O5)cc4)CC3)cc2)c1=O  metabolite_detected
1  CC[C@H](C)n1ncn(-c2ccc(N3CCN(c4ccc(OC[C@@H]5CO[C@@](Cn6cncn6)(c6ccc(Cl)cc6Cl)O5)cc4)CC3)cc2)c1=O  metabolite_detected
2  CC[C@@H](C)n1ncn(-c2ccc(N3CCN(c4ccc(OC[C@H]5CO[C@](Cn6cncn6)(c6ccc(Cl)cc6Cl)O5)cc4)CC3)cc2)c1=O  metabolite_detected
3  CC[C@@H](C)n1ncn(-c2ccc(N3CCN(c4ccc(OC[C@@H]5CO[C@@](Cn6cncn6)(c6ccc(Cl)cc6Cl)O5)cc4)CC3)cc2)c1=O  metabolite_detected

====

# MEASURED ON: CYP3A4 (Homo sapiens, UniProt P08684)
# Sequence (P08684 whole entry): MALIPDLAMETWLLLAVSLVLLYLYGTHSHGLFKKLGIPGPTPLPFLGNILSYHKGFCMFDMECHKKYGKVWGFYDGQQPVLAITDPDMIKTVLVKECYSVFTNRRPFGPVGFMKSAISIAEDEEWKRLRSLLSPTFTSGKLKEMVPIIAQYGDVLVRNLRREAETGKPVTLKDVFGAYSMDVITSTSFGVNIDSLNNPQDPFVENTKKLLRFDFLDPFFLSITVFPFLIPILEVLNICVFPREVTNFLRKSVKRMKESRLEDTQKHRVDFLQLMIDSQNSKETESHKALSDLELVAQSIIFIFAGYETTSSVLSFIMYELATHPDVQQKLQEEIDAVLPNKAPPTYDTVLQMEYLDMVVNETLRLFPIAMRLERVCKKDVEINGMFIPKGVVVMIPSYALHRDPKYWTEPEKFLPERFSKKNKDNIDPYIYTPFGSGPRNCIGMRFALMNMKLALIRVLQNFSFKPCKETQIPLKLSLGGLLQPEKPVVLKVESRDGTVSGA
# ASSAY COMMENT: Inhibition of CYP3A4 in human liver microsomes using midazolam as substrates at 15 uM after 5 mins by LC/MS analysis in presence of NADPH
# Assay type: ADME
# CONDITION SET: probe midazolam
REPORTED PROPERTY: inhibition at 5 min, 15 µM

Input: Can you look up the measured inhibition at 5 min, 15 µM of O=C(Cn1cncn1)c1ccc(Cl)cc1Cl for me?
Output: < 50%

====

# MEASURED ON: Cytochrome P450 3A4 (Homo sapiens)
# ASSAY COMMENT: Drug metabolism of the compound assessed as reconstituted CYP3A4 (unknown origin)-mediated 1-(2,4-dichlorophenyl)-2-(1H-1,2,4-triazol-1-yl)ethanone formation at 500 nM after 5 mins by LC/MS analysis in presence of NADPH
# Format: ADME
# CONDITION SET: 0.5 µM
REPORTED PROPERTY: Kcat (s⁻¹)
The figure you give is taken to be in s⁻¹; do not add the unit.

Input: Cytochrome P450 3A4 (Homo sapiens) / Kcat / CC[C@@H](C)n1ncn(-c2ccc(N3CCN(c4ccc(OC[C@@H]5CO[C@](Cn6cncn6)(c6ccc(Cl)cc6Cl)O5)cc4)CC3)cc2)c1=O : value?
Output: 0.0032

Input: Observed Kcat on Cytochrome P450 3A4 (Homo sapiens) for CC[C@H](C)n1ncn(-c2ccc(N3CCN(c4ccc(OC[C@H]5CO[C@@](Cn6cncn6)(c6ccc(Cl)cc6Cl)O5)cc4)CC3)cc2)c1=O , please.
Output: 0.0042

Input: For Cytochrome P450 3A4 (Homo sapiens), provide Kcat of CC[C@H](C)n1ncn(-c2ccc(N3CCN(c4ccc(OC[C@@H]5CO[C@](Cn6cncn6)(c6ccc(Cl)cc6Cl)O5)cc4)CC3)cc2)c1=O please.
Output: 0.0038

Input: Lab note: need Kcat for CC[C@@H](C)n1ncn(-c2ccc(N3CCN(c4ccc(OC[C@H]5CO[C@@](Cn6cncn6)(c6ccc(Cl)cc6Cl)O5)cc4)CC3)cc2)c1=O on Cytochrome P450 3A4 (Homo sapiens), anyone have it?
Output: 0.0041

Where these numbers come from: ChEMBL document CHEMBL3525957
